pIC50 values, listed per item
assayed.system: recombinant human MetAP2 (Homo sapiens)
Construct: Flag
Sequence (P50579 whole entry): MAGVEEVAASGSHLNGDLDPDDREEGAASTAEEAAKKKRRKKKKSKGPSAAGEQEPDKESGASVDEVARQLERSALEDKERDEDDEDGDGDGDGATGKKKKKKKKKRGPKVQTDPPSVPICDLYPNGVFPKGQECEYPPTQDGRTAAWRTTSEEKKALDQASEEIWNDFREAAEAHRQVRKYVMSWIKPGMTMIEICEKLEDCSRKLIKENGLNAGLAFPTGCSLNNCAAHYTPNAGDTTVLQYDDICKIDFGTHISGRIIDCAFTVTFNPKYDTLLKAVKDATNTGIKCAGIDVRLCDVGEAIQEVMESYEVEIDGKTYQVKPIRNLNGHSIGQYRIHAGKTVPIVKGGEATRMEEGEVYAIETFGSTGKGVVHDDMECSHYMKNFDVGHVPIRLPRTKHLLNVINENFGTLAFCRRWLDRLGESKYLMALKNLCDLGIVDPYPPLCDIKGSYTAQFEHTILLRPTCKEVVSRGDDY
method.description: Inhibition of recombinant human MetAP2 activity (MAS substrate, amino acid oxidase/Amplex red fluorescence)
measurement.context: manganese enzyme, 30 minutes at 25° C., pH 7.5, 0.75 mM MAS substrate, 1% DMSO; read-out: Activity (MetAP2 IC50 class)
pIC50: −log10 of the molar value.
measured.property: pIC50

[[record]]
compound_string = "Cc1cccc(NS(=O)(=O)c2ccccc2)c1-c1nnn[nH]1"
assayed_system = "recombinant human MetAP2 (Homo sapiens)"
measured_property = "pIC50"
assay_result = "< 6.00"

[[record]]
compound_string = "O=S(=O)(Nc1cccc(Br)c1-c1nnn[nH]1)c1ccccc1"
assayed_system = "recombinant human MetAP2 (Homo sapiens)"
measured_property = "pIC50"
assay_result = "< 6.00"

[[record]]
compound_string = "COc1cccc(NS(=O)(=O)c2ccccc2)c1-c1nnn[nH]1"
assayed_system = "recombinant human MetAP2 (Homo sapiens)"
measured_property = "pIC50"
assay_result = "> 6.00"

[[record]]
compound_string = "O=S(=O)(Nc1ccc2c(c1-c1nnn[nH]1)CCCC2)c1ccccc1"
assayed_system = "recombinant human MetAP2 (Homo sapiens)"
measured_property = "pIC50"
assay_result = "< 6.00"

[[record]]
compound_string = "O=S(=O)(Nc1cccc(C2CC2)c1-c1nnn[nH]1)c1ccccc1"
assayed_system = "recombinant human MetAP2 (Homo sapiens)"
measured_property = "pIC50"
assay_result = "> 6.00"

